Biological target: T1, naked peptide IPNMADDYGS (human)
T1 peptide: IPNMADDYGS
Experiment: ELISA naked peptide; scFv 1 ug/mL; repI
Protocol: The peptides were synthesized naked or with a N-terminal Biotin modification with a purity of >98%. All four scFvs were verified by ELISA that can be detected with anti-His antibodies. ELISA was performed for scFv-peptide binding validation. Briefly, naked peptides were coated (50 μg/mL) in 0.58M carbonate-bicarbonate buffer pH9.5, 100 μL/well, 4° C. […]
recorded endpoint: OD450 (OD)
// note: answer is a bare numeric in OD

Consider the following illustrative entries.
{"columns": ["binder", "OD450 [OD]"],
 "data": [
  ["CCR9_HUM2 scFv (humanized anti-CCR9 scFv, SEQ ID NO: 17 with C-terminal 6xHis tag) (scFv) scFv: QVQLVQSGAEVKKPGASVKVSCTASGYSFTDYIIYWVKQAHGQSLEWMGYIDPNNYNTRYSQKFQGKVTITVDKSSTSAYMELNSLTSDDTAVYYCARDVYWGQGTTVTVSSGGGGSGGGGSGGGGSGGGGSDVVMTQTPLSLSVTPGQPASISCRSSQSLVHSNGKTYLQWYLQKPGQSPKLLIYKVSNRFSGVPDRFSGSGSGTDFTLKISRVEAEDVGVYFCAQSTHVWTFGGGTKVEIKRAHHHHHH", 0.02],
  ["Comparative antibody 1 (Comp-1) scFv, SEQ ID NO: 10 from WO2023/037125 A1, His-tagged (scFv) scFv: QVQLKESGPGLVQPSQTLSLTCTVSGFSVASYDMHWVRLPPGKGLEWMGIIWANGNTHYNSGLKSRLSISRDTSKSQVFLKMNSLQTEDTAIYFCTRGGFAYWGQGTLVTVSSGGGGSGGGGSGGGGSGGGGSDVVMTQTPVSLSVSLGGQVSISCRSSQSLVHNNGNTYLSWYLQKPGQSPQLLIYKVSNRFSGVSDRFSGSGSGTDFTLKISRVEPDDLGVYYCGQGTQYPTFGGGTKLELKHHHHHH", 0.01],
  ["Comparative antibody 2 (Comp-2) scFv, 243LO326 (VH SEQ ID NO: 51 and VL SEQ ID NO: 52 of WO 2022/195028 A2), His-tagged (scFv) scFv: QVQLVQSGAEVKKPGASVKVSCKASGYTFTSYWMHWVRQAPGQGLEWIGVIYPGNSDTRYNQKFKGRVTITRDTSASTAYMELSSLRSEDTAVYYCTRDYYSNYVYYYAMDYWGQGTTVTVSSGGGGSGGGGSGGGGSGGGGSDIVMTQTPLSLPVTPGEPASISCRSSQSLVHPNRNTYLHWYLQKPGQSPQLLIYKVSNRFSGVPDRFSGSGSGTDFTLKISRVEAEDVGVYYCSQSTHVPWTFGQGTKLEIKHHHHHH", 0.02]
]}

Exam item: Need OD450 of Comparative antibody 3 (Comp-3) scFv, SR_92R (Somovilla-Crespo et al. 2018), His-tagged (scFv) scFv: EVKLEESGGGLVQPGGSMKLSCVASGFTFNKFWMNWVRQSPEKGLEWVAEIRLKSNNYATHYAESVKGRFTISRDDSKSSVYLQMNNLRAEDTGIYYCASDGWFAYWGQGTLVTVSAGGGGSGGGGSGGGGSGGGGSDVVMTQTPLSLPVSLGDQASISCRSSQSLVHSNGNTYLNWCLQRPGQSPKSLIYKVSNRFSGVPDRFSGSGSGTDFTLKISRVEAEDLGVYFCSQSTHFPRTFGGGTKLEIKRHHHHHH , thanks.
Marked response: 0.02
